Tested on: NCI-H1734
Method Description: relative viability (nuclei count vs DMSO), 5 days (fraction); higher = more cells survive
Test Settings: first compound 0.002 µM

- Compound: "CC(=O)O[C@@]12CO[C@@H]1C[C@H](O)[C@@]1(C)C(=O)[C@H](O)C3=C(C)[C@@H](OC(=O)[C@H](O)[C@@H](NC(=O)OC(C)(C)C)c4ccccc4)C[C@@](O)([C@@H](OC(=O)c4ccccc4)[C@H]21)C3(C)C [Docetaxel] + O=C(c1cc(Cc2n[nH]c(=O)c3ccccc23)ccc1F)N1CCN(C(=O)C2CC2)CC1 [Olaparib] (partner 8 µM)"
  relative viability: 0.292
- Compound: "CC(=O)O[C@@]12CO[C@@H]1C[C@H](O)[C@@]1(C)C(=O)[C@H](O)C3=C(C)[C@@H](OC(=O)[C@H](O)[C@@H](NC(=O)OC(C)(C)C)c4ccccc4)C[C@@](O)([C@@H](OC(=O)c4ccccc4)[C@H]21)C3(C)C [Docetaxel] + C[C@]1(O)C[C@@H](c2nc(-c3ccc4ccc(-c5ccccc5)nc4c3)c3c(N)nccn32)C1 [Linsitinib] (partner 1 µM)"
  relative viability: 0.516
- Compound: "CC(=O)O[C@@]12CO[C@@H]1C[C@H](O)[C@@]1(C)C(=O)[C@H](O)C3=C(C)[C@@H](OC(=O)[C@H](O)[C@@H](NC(=O)OC(C)(C)C)c4ccccc4)C[C@@](O)([C@@H](OC(=O)c4ccccc4)[C@H]21)C3(C)C [Docetaxel] + CC1(C)CCC(c2ccc(Cl)cc2)=C(CN2CCN(c3ccc(C(=O)NS(=O)(=O)c4ccc(N[C@H](CCN5CCOCC5)CSc5ccccc5)c(S(=O)(=O)C(F)(F)F)c4)cc3)CC2)C1 [Navitoclax] (partner 0.5 µM)"
  relative viability: 0.323

----------
relative viability: recorded values
Tested on: UMC-11
Method Description: relative viability (nuclei count vs DMSO), 5 days (fraction); higher = more cells survive
Test Settings: first compound 0.02 µM
Assay Metric: relative viability

- Compound: "CC(=O)O[C@@]12CO[C@@H]1C[C@H](O)[C@@]1(C)C(=O)[C@H](O)C3=C(C)[C@@H](OC(=O)[C@H](O)[C@@H](NC(=O)OC(C)(C)C)c4ccccc4)C[C@@](O)([C@@H](OC(=O)c4ccccc4)[C@H]21)C3(C)C [Docetaxel] + COc1cccc2cc(-c3nc([C@H]4CC[C@H](C(=O)O)CC4)n4ncnc(N)c34)[nH]c12 [OSI-027] (partner 0.5 µM)"
  Quantitative Result: 0.175
- Compound: "CC(=O)O[C@@]12CO[C@@H]1C[C@H](O)[C@@]1(C)C(=O)[C@H](O)C3=C(C)[C@@H](OC(=O)[C@H](O)[C@@H](NC(=O)OC(C)(C)C)c4ccccc4)C[C@@](O)([C@@H](OC(=O)c4ccccc4)[C@H]21)C3(C)C [Docetaxel] + N=C(N)NC(=N)NCCc1ccccc1 [Phenformin] (partner 250 µM)"
  Quantitative Result: 0.199
- Compound: "CC(=O)O[C@@]12CO[C@@H]1C[C@H](O)[C@@]1(C)C(=O)[C@H](O)C3=C(C)[C@@H](OC(=O)[C@H](O)[C@@H](NC(=O)OC(C)(C)C)c4ccccc4)C[C@@](O)([C@@H](OC(=O)c4ccccc4)[C@H]21)C3(C)C [Docetaxel] + CC(=O)Nc1cccc(-n2c(=O)n(C3CC3)c(=O)c3c(Nc4ccc(I)cc4F)n(C)c(=O)c(C)c32)c1 [Trametinib] (partner 0.02 µM)"
  Quantitative Result: 0.147
